TARGET_UNDER_TEST: Histone deacetylase (Plasmodium falciparum (isolate 3D7), UniProt Q7K6A1)
Sequence (Q7K6A1 whole entry): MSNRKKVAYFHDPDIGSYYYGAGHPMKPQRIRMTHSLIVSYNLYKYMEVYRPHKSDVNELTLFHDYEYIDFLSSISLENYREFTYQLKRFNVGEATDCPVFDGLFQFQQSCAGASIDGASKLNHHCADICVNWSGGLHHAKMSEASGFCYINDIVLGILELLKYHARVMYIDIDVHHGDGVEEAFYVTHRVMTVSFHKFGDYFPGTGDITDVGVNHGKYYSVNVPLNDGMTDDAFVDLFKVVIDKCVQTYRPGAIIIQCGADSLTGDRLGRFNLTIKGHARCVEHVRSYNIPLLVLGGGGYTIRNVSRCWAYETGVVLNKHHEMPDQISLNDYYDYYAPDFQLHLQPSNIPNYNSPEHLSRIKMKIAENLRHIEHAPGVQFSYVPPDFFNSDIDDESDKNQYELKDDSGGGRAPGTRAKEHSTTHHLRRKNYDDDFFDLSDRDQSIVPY
METHOD_NOTES: Inhibition of HDAC1 in Plasmodium falciparum 3D7 nuclear extract using Ac-RGK(Ac)-AMC fluorogenic peptide as substrate preincubated for 1 hr followed by substrate addition measured after 10 min by fluorescence assay
pIC50: −log10 of the molar value.

{"RECORD_SMILES": "C/C=C1\\NC(=O)[C@H]2CSSCC/C=C/[C@@H](CC(=O)N[C@H](C(C)C)C(=O)N2)OC(=O)[C@H](C(C)C)NC1=O", "pIC50": 9.05}

Ref: BindingDB's records for doi:10.1021/acs.jmedchem.6b01595
